# TEST PROTOCOL: Drug concentration in female CB17 SCID mouse tumor at 5 mg/kg, iv measured at 48 hrs by LC-MS/MS analysis
# Assay type: ADME, organism-based, Neoplasm
# RECORDED CONDITIONS: read-out: Ct
READOUT NAME: concentration at 48 h (ng/g)

COMPOUND | QUANTITATIVE RESULT
COC(=O)N1CC[C@H]2CC[C@@H](C(=O)N[C@@H](CCC(N)=O)C(=O)N[C@@H](Cc3ccc(F)c(F)c3)C(=O)N3CCC(CCC#Cc4cccc5c4CN(C4CCC(=O)NC4=O)C5=O)CC3)N2C(=O)[C@@H](NC(=O)c2cc3cc(C(F)(F)P(=O)(O)O)ccc3s2)C1 (stereo partly specified) | 1110

----------
# TEST PROTOCOL: Drug concentration in female CB17 SCID mouse tumor at 5 mg/kg, iv measured at 6 hrs by LC-MS/MS analysis
# Assay type: ADME, organism-based, Neoplasm
# RECORDED CONDITIONS: read-out: Ct

COMPOUND | U | concentration at 6 h
COC(=O)N1CC[C@H]2CC[C@@H](C(=O)N[C@@H](CCC(N)=O)C(=O)N[C@@H](Cc3ccc(F)c(F)c3)C(=O)N3CCC(CCC#Cc4cccc5c4CN(C4CCC(=O)NC4=O)C5=O)CC3)N2C(=O)[C@@H](NC(=O)c2cc3cc(C(F)(F)P(=O)(O)O)ccc3s2)C1 (stereo partly specified) | ng/g | 3150

----------
# TEST PROTOCOL: Apparent volume of distribution in Sprague-Dawley rat at 5 mg/kg, iv
# Type: ADME, organism-based
# RECORDED CONDITIONS: in vivo, read-out: Vz
Vd by entry:

MOLECULE | Vd (L/kg)
COC(=O)N1CC[C@H]2CC[C@@H](C(=O)N[C@@H](CCC(N)=O)C(=O)N[C@@H](Cc3ccc(F)c(F)c3)C(=O)N3CCC(CCC#Cc4cccc5c4CN(C4CCC(=O)NC4=O)C5=O)CC3)N2C(=O)[C@@H](NC(=O)c2cc3cc(C(F)(F)P(=O)(O)O)ccc3s2)C1 (some centres not stated) | 0.12
CC(=O)N1CC[C@H]2CC[C@@H](C(=O)N[C@@H](CCC(N)=O)C(=O)N[C@@H](Cc3ccc(F)c(F)c3)C(=O)N3CCC(CCC#Cc4cccc5c4CN(C4CCC(=O)NC4=O)C5=O)CC3)N2C(=O)[C@@H](NC(=O)c2cc3cc(C(F)(F)P(=O)(O)O)ccc3s2)C1 (some centres not stated) | 0.44

----------
# TEST PROTOCOL: Drug concentration in female CB17 SCID mouse spleen at 5 mg/kg, iv measured at 72 hrs by LC-MS/MS analysis
# Format: ADME, organism-based
# RECORDED CONDITIONS: read-out: Ct
READOUT NAME: concentration at 72 h (ng/g)

COMPOUND | READOUT NAME | QUANTITATIVE RESULT
COC(=O)N1CC[C@H]2CC[C@@H](C(=O)N[C@@H](CCC(N)=O)C(=O)N[C@@H](Cc3ccc(F)c(F)c3)C(=O)N3CCC(CCC#Cc4cccc5c4CN(C4CCC(=O)NC4=O)C5=O)CC3)N2C(=O)[C@@H](NC(=O)c2cc3cc(C(F)(F)P(=O)(O)O)ccc3s2)C1 (stereo partly specified) | concentration at 72 h | 568
